target.or.system: PARP-2 (Homo sapiens, UniProt Q9UGN5)
Construct: purchased BPS Bioscience 80552
Sequence (Q9UGN5 whole entry): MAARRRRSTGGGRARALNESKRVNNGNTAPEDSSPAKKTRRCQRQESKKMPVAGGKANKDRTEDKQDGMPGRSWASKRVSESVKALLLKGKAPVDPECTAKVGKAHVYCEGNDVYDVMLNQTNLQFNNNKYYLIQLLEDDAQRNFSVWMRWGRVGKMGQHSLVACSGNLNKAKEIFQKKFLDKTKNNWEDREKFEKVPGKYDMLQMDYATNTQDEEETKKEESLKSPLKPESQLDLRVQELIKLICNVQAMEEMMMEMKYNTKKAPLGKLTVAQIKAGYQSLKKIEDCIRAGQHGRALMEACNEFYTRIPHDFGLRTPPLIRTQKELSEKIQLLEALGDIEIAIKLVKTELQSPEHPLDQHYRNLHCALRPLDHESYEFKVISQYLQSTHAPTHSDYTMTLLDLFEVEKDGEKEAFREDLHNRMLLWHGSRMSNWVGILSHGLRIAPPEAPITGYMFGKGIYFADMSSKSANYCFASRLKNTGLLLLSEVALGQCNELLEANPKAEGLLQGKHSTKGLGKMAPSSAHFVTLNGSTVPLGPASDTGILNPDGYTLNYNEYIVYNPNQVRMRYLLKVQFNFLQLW
run.description: PARP-2 inhibition assay (PARP-2 Chemiluminescent Assay Kit, BPS Bioscience)
Type: biochemical
reported.conditions: 10 nM compound, supplement sheet; read-out: 10 nM inhibition% PAPR-2
metric.name: inhibition at 0.01 µM (%)
Supply the numeric figure in %, leaving out any unit text.

These recorded examples may help you get a feel for the data.
NC(=O)c1cccc2[nH]c(C3CCN(CCCNc4ccccc4)C3)nc12 (stereo not shown)	66.2
NC(=O)c1cccc2[nH]c(C3CCN(CC(=O)Nc4ccccc4)C3)nc12 (stereo not shown)	34.5
NC(=O)c1cccc2[nH]c(C3CCN(CCC(=O)c4ccc(Cl)cc4)C3)nc12 (stereo not shown)	65.5

The record that follows has no inhibition at 0.01 µM shown yet.
# input molecule: NC(=O)c1cccc2[nH]c(C3CCN(CCCC(=O)c4ccccc4)C3)nc12 (stereo not shown) ; wanted: its inhibition at 0.01 µM 62.3
